All figures here come from paper PMC9482650.

Would you kindly list pKd for each of these binders?
measurement_target: T1, DLG3_2, Q92796
T1 sequence (Q92796 221-321, limits assumed, looked up): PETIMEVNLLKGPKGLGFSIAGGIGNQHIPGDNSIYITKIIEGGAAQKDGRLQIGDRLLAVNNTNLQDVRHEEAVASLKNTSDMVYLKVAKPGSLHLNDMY
experiment_description: holdup assay
Design: key: below the threshold = too weak to quantify, mostly under pKd 3.1 to 4
assay_conditions: plain residues with an end cap or a label only (N-terminal biotin on a linker: ado-ado)
Lab note: record the figure alone, no unit after it.

Query: Supply recorded pKd for SNAGNTATKA [NOSTRIN, Q8IVI9] here.
Response: 4.25

Query: Supply recorded pKd for PDGQCTVTEV [RNF146, Q9NTX7] here.
Response: 4.98

Query: Supply recorded pKd for CLREWCDAFL [BANF1, O75531] here.
Response: 4.15

Query: Supply recorded pKd for QSLNRMEYIV [JAG1, P78504] here.
Response: 4.45

Query: Supply recorded pKd for NHSSSPETTA [TRMT13, Q9NUP7] here.
Response: 4.09

Query: Supply recorded pKd for LPHGHSTTRV [NLGN4X, Q8N0W4] here.
Response: 3.85

Query: Supply recorded pKd for SAAKVLTSMC [GHRHR, Q02643] here.
Response: 4.12

Query: Supply recorded pKd for VKPQVSESKL [ACOT8, O14734] here.
Response: 4.17

Query: Supply recorded pKd for DDENIRTSDV [PLEKHA2, Q9HB19] here.
Response: 4.38

Query: Supply recorded pKd for EALLQMESVA [CAVIN3, Q969G5] here.
Response: 4.21

Query: Supply recorded pKd for QSARLWETSI [ADAM22, Q9P0K1] here.
Response: 4.32

Query: Supply recorded pKd for QHKTQLQTLI [BPIFA2, Q96DR5] here.
Response: 4.08

Query: Supply recorded pKd for QKNRKAQEDL [CES3, Q6UWW8] here.
Response: 4.21
